target: pooled human IgG (human IgG1,2,3 and 4)
Please respond with fulfilled when measured Enzyme Activity Endpoint Assay: Fc is strictly beneath 200 ng/µL, and with not fulfilled in all other cases.

[[record]]
protein = "PRT-468 (protein) MITSVWTKGVTPPTDFIKGEDVFHAPYKAGQGWYDITKAFDGGDDLLCGAATAGNMLHWWFDQNKDQIERYLKEHPEKQKINFNGEQMFDVKEAIDTKDSQTNSELFNYFKEKAFPYLSTKHLGVFPDHVLDMFINGYRLSLTNHGPTPVKEGSKDPRGGIFDAVFTRGDQSKLLTSRHDLKNKTLNEISQLIKQELTEGKALGLSHTYANVRINHVINLWGADFDAEGNLEAIYVTDSDSNASIGMKKYFVGVNSAGKVAISAKEIKEDNIGAQVLGLFTLSTGQDIWNQTNLEHHHHHH"
labelvalue = "not fulfilled"

[[record]]
protein = "PRT-95 (protein) MANQEIRYSEVTPYHITSVWTKGVTPPAKFTQGEDVFHAPYVANQGWYDITKTFNGKDDLLCGAATAGNMLHWWFDQNKEKIEAYLKKHPDKQKIMFGDQELLDVRKVINTKGDQTNSELFNYFRDKAFPNLSARRIGVMPDLVLDMFINGYYLNVGKTQTTDVNRTYQEKDKRGGIFDAVFTRGDQSKLLTSRHDFKEKNLKEISDLIKQELTEGKALGLSHTYANVRINHVINLWGADFDSNGNLKAIYVTDSDSNASIGMKKYFVGVNSAGKVAISAKEIEEDNIGAQVLGLFTLSTGQDSWNQTN"
labelvalue = "fulfilled"

[[record]]
protein = "PRT-103 (protein) MANQEIRYSEVTPYHVTSVWTKGVTPPAKFTQGEDVFHAPYVANQGWYDITKTFNGKDDLLCGAATAGNMLHWWFDQNKEKIEAYLKKHPDKQKIMFGDQELLDVRKVINTKGSQTNSELFNYFRDKAFPGLSARRIGVMPDLVLDMFINGYYLNVYKTQTTDVNRTYQEKDRRGGIFDAVFTRGDQSKLLTSRHDFKEKNLKEISDLIKKELTEGKALGLSHTYANVRINHVINLWGADFDSNGNLKAIYVTDSDSNASIGMKKYFVGVNSAGKVAISAKEIKEDNIGAQVLGLFTLSTGQDSWNQTN"
labelvalue = "fulfilled"

[[record]]
protein = "PRT-309 (protein) MQITSVWTKGVTPLTPEQFRENNEDVIHAPYLAHQGWYDITKAFDGKDNLLCGAATAGNMLHWWFDQNKTEIEAYLSKHPEKQKIIFGNQELFDLKAAIDTKDSQTNSQLFDYFRDKAFPNLSARQLGVMPDLVLDMFINGYYLNVGKTQSTDVNRPYQDKDKRGGIFDAVFTRGDQTTLLTARHDLKNKGLNDISTIIKQELTEGRALALSHTYANVSISHVINLWGADFDAEGNLEAIYVTDSDANASIGMKKYFVGRNAHGHVAISAKKIEGENIGAQVLGLFTLSSGKDQWQKLS"
labelvalue = "fulfilled"

[[record]]
protein = "PRT-190 (protein) MANQEIRYSEVTPYHVTSVWTKGVTPPDHDFRKIVDGEDVFHAPYVANQGWYDITKTFNGKDDLLCGAATAGNMLHWWFDQNKDQIKRYLEEHPEKQKINFNGEQMFDVKEAIDTKNHQLDSKLFEYFKEKAFPYLSTKHLGVFPDHVIDMFINGYRLSLTNHGPTPVKEGSKDPRGGIFDAVFTRGDQSKLLTSRHDFKEKNLKEISDLIKKELTEGKALGLSHTYANVRINHVINLWGADFDSNGNLKAIYVTDSDSNASIGMKKYFVGVNSAGKVAISAKEIKEDNIGAQVLGLFTLSTGQDSWNQTN"
labelvalue = "not fulfilled"

[[record]]
protein = "PRT-502 (protein) MITSVWTKGVTPPTDFIKGEDVFHAPYKAGQGWYDITKAFDGGDDLLCGAATAGNMLHWWFDQNKEYIEAYLKKHPEKQKIMFGDQELLDVRKAINTKGSQKNSELFNYFRDKAFPNLSARRLGVMPDLVLDMFINGYYLNVTKTQTTDVNRQEQEKDKRGGIFDAVFGRGDQTKLLTSRHDFKEKGLNEISQLIKQELTEGKALGLSHTYANVRINHVINLWGADFDADGNLEAIYVTDSDSNASIGMKKYFVGVNSAGKVAISAKEIKEDNIGAQVLGLFTLSTGQKIWNKTNLEHHHHHH"
labelvalue = "not fulfilled"

[[record]]
protein = "PRT-243 (protein) MVTSVWTKGVTPPANFTQGEDVFHAPYVANQGWYDITKLFNGKDDLLCGAATAGNMLHWWFDQNKDQIKRYLEEHPEKQKINFNGEQMFDVKEAIDTKNHQLDSKLFDYFKEKAFPNLSTKHLGVFPDHVIDMFINGYRLSLLNHGPTPVKEGSKDPRGGIFDAVFTRGDQSKLLTSRHDFKEKNLKEISDLIKKELTEGKALGLSHTYANGRINHVINLWGADFDSNGNLKAIYVTDSDSNPSIGMKKYFVGVNSSGKVAISAKEIKEDNIGAQVLGLFTLSTGQDSWNQTN"
labelvalue = "not fulfilled"

